- Target or test system: CK1ε (Homo sapiens)
- Assay details: CK1ε kinase assay (Caliper LabChip electrophoretic separation of fluoresceinated peptide substrate and product)
- Type: biochemical
- Experimental conditions: 200 pM CK1ε, 50 μM ATP, 1.5 μM peptide, 22 hours at room temperature; read-out: CK1ε IC50 range
Test readout: IC50

Please look up its IC50: NC(=O)c1c(-c2ccc(F)c(Cl)c2)nn2c1CN(C(=O)NC1CC(F)(F)C1)CC2C(F)(F)F (single isomer, unassigned) [Compound A125] 10 to 100 nM

// query IC50 value for entry `NC(=O)c1c(-c2cccc(F)c2)nn2c1CN(C(=O)Nc1ccc(Cl)cc1Cl)CC2` 10 to 100 nM

* * *

- Target or test system: CK1ε (Homo sapiens)
- Assay details: CK1ε kinase assay (Caliper LabChip electrophoretic separation of fluoresceinated peptide substrate and product)
- Format: biochemical
- Experimental conditions: 200 pM CK1ε, 50 μM ATP, 1.5 μM peptide, 22 hours at room temperature; read-out: CK1ε IC50 range
Measured IC50, listed per entry.

Solved cases (6 shown):
>>> df
                                   molecule     test_value
0  CC(C)(C)NC(=O)N1Cc2c(C(N)=O)c(-c3ccc(F)c(Cl)c3)nn2C(C(F)(F)F)C1 (single isomer, unassigned) [Compound A127]   10 to 100 nM
1  CS(=O)(=O)c1cccc(NC(=O)N2CCn3nc(-c4cccc(F)c4)c(C(N)=O)c3C2)c1 [Compound 93]  0.01 to 10 nM
2  Cn1nccc1NC(=O)N1CCn2nc(-c3cccc(F)c3)c(C(N)=O)c2C1 [Compound 96]   10 to 100 nM
3  NC(=O)c1c(-c2ccc(F)c(Cl)c2)nn2c1CN(C(=O)NC1CC(F)(F)C1)C[C@@H]2CO [Compound A116]  0.01 to 10 nM
4  CC1CC(NC(=O)N2CCn3nc(-c4ccc(F)c(Cl)c4)c(C(N)=O)c3C2)C1 (single isomer, unassigned) [Compound 247]  0.01 to 10 nM
5  CC1(NC(=O)N2CCn3nc(-c4cccc(F)c4)c(C(N)=O)c3C2)CC1 [Compound 11]   10 to 100 nM

Continue with the molecule presented below.
Requested read-out: IC50. Entry: NC(=O)c1c(-c2ccc(F)c(Cl)c2)nn2c1CN(C(=O)N[C@H]1C[C@@H](OC(F)(F)F)C1)CC2 [Compound 261] 0.01 to 10 nM

* * *

- Target or test system: CK1ε (Homo sapiens, UniProt P49674)
- Sequence (P49674 whole entry): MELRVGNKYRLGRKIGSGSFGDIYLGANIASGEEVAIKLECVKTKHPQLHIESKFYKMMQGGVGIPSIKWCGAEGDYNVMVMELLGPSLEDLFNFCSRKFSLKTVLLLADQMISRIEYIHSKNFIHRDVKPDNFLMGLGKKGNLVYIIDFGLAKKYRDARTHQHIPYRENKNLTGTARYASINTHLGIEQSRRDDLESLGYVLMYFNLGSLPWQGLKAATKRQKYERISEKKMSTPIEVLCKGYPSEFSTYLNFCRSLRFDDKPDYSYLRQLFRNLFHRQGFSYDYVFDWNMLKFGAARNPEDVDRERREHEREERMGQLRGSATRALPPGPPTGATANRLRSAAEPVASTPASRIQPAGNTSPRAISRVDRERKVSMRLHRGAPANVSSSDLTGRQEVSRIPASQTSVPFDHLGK
- Assay details: CK1ε kinase assay (Caliper LabChip electrophoretic separation of fluoresceinated peptide substrate and product)
- Format: biochemical
- Experimental conditions: 200 pM CK1ε, 50 μM ATP, 1.5 μM peptide, 22 hours at room temperature; read-out: CK1ε IC50 range
Test readout: IC50

                                   compound  test_readout     test_value
0  Cc1ccc(NC(=O)N2CCn3nc(-c4cccc(F)c4)c(C(N)=O)c3C2)cn1          IC50   10 to 100 nM
1  CC(C)(NC(=O)N1CCn2nc(-c3ccc(F)c(Cl)c3)c(C(N)=O)c2C1)C(F)F          IC50  0.01 to 10 nM
2  CC1(NC(=O)N2CCn3nc(-c4ccc(Cl)c(Cl)c4)c(C(N)=O)c3C2)CC2(C1)CC2(F)F (single isomer, unassigned) [Compound 328]          IC50  0.01 to 10 nM

Could you tell me which IC50 is on file for `COC12CCC(NC(=O)N3CCn4nc(-c5ccc(F)c(Cl)c5)c(C(N)=O)c4C3)(CC1)C2` ? 0.01 to 10 nM
